This collection of values is drawn from patent US5985836A.

assay.system: A1PI (Homo sapiens)
Construct: Human plasma is currently the only approved source of therapeutic AlPI
method.notes: Purification of A1PI from Effluent II+III on peptide column, A1PI mass balance
Format: binding
study.conditions: A1PI; 1 ml Eff. II+III, 4° C.; * as in Tables 4, 5 (below detection limit)
Ends that are not written are not given here.
property.label: Mass Protein per Eluate Fraction, 1M NaCl (mg)

Solved cases below.
INSERT INTO results (substance, value) VALUES
  ('YKFRFW', 0.06),
  ('RYRIFI', 0.07);

I. LIVHRW
II. QYHFWY
III. VIWLVR
IV. RAFWYI
Parameters: sort_field (Mass Protein per Eluate Fraction, 1M NaCl), sort_dir (desc). Use the labels to give the requested order. I, III, II, IV
(I: 0.20 mg, III: 0.10 mg, II: 0.06 mg, IV: 0.04 mg)

====

assay.system: A1PI (Homo sapiens, UniProt P01009)
Construct: Human plasma is currently the only approved source of therapeutic AlPI
Sequence (P01009 25-418): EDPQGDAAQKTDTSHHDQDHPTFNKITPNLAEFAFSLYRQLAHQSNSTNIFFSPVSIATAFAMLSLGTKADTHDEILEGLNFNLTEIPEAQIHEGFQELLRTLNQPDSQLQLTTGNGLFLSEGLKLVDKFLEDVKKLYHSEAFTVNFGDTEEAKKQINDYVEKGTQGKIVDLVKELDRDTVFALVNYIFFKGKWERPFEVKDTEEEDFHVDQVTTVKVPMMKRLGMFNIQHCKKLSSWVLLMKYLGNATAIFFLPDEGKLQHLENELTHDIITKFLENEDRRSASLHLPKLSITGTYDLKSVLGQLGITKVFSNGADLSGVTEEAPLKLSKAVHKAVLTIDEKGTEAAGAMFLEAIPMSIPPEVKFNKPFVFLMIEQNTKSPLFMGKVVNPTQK
method.notes: A1PI purification from 5 mg hSA + 1 mg A1PI on peptide column, A1PI mass balance
Type: binding
study.conditions: A1PI; 5 mg hSA + 1 mg A1PI, 4° C.; relative to total eluted
Ends that are not written are not given here.
property.label: Percent Eluted by Fraction, 3M NaCl (%)

P. LIVHRW
Q. YKFRFW
Sorting ascending by Percent Eluted by Fraction, 3M NaCl, which comes first: P or Q ? Could you answer with the label of the item you picked? P
(P: 0%, Q: 5%)

I. RLWRYG
II. RFIYYT
Hi there! Just curious which has the higher Percent Eluted by Fraction, 3M NaCl between I and II . API: response body contains the label of the selected item. II

====

assay.system: A1PI (Homo sapiens, UniProt P01009)
Construct: Human plasma is currently the only approved source of therapeutic AlPI
method.notes: Purification of A1PI from Effluent II+III on peptide column, A1PI mass balance
Format: binding
study.conditions: A1PI; 1 ml Eff. II+III, 4° C.; * as in Tables 4, 5 (below detection limit)
Ends that are not written are not given here.
property.label: Mass Protein per Eluate Fraction, 2% Acetic Acid (mg)

Recorded results for 5 substances are shown here.
INSERT INTO results (substance, value) VALUES
  ('RFIYYT', 0.81),
  ('YKFRFW', 0.92),
  ('IIWLYK', 0.50),
  ('VIWLVR', 0.51),
  ('RAFWYI', 0.87);

a. ARWYIH
b. PYWIVR
Returns: the label, a or b , whose recorded Mass Protein per Eluate Fraction, 2% Acetic Acid is the lower number. Write down the label of the entry you select. b
(b: 0.28 mg, a: 0.81 mg)

====

assay.system: A1PI (Homo sapiens, UniProt P01009)
Construct: Human plasma is currently the only approved source of therapeutic AlPI
method.notes: A1PI binding on peptide-resin column, injection of 1 mg A1PI in equilibration buffer
study.conditions: 1 mg A1PI in equilibration buffer, 4° C.
Ends that are not written are not given here.
property.label: Percent A1PI Eluted by Fraction Based on Absorbance at 280 nm, 2% Acetic Acid (%)

Field: example entries. Status: answers known.
INSERT INTO assay_data (substance, value) VALUES
  ('WKLWRW', 20),
  ('RYRIFI', 60);

1. RFIYYT
2. RLWRYG
Compare 1 and 2 and name the one whose reported Percent A1PI Eluted by Fraction Based on Absorbance at 280 nm, 2% Acetic Acid is smaller. Identify your pick by its label. 2
(2: 12%, 1: 43%)

====

assay.system: A1PI (Homo sapiens, UniProt P01009)
Construct: Human plasma is currently the only approved source of therapeutic AlPI
method.notes: A1PI binding on peptide-resin column, injection of 1 mg A1PI in equilibration buffer
study.conditions: 1 mg A1PI in equilibration buffer, 20° C.
Ends that are not written are not given here.
property.label: Percent A1PI Eluted by Fraction, 1M NaCl (%)

Solved cases (5 shown):
INSERT INTO assay_data (substance, property_label, units_label, value) VALUES
  ('QYHFWY', 'Percent A1PI Eluted by Fraction, 1M NaCl', '%', 0),
  ('WKLWRW', 'Percent A1PI Eluted by Fraction, 1M NaCl', '%', 67),
  ('WIKWTK', 'Percent A1PI Eluted by Fraction, 1M NaCl', '%', 91),
  ('RYRIFI', 'Percent A1PI Eluted by Fraction, 1M NaCl', '%', 35),
  ('WSSKRY', 'Percent A1PI Eluted by Fraction, 1M NaCl', '%', 97);

I. NWKRVR
II. RFIYYT
Lab note: check whether I or II shows the higher recorded Percent A1PI Eluted by Fraction, 1M NaCl. Answer = label. I
(I: 93%, II: 64%)

====

assay.system: A1PI (Homo sapiens)
Construct: Human plasma is currently the only approved source of therapeutic AlPI
method.notes: A1PI purification from 5 mg hSA + 1 mg A1PI on peptide column, A1PI mass balance
Assay type: binding
study.conditions: A1PI; 5 mg hSA + 1 mg A1PI, 4° C.; * Below detection limit
Ends that are not written are not given here.
property.label: Mass Protein per Eluate Fraction, 2% Ac. Acid (mg)

INSERT INTO results (substance, value) VALUES
  ('QYHFWY', 0.35);

A. ARWYIH
B. PYWIVR
Between A and B , whose recorded Mass Protein per Eluate Fraction, 2% Ac. Acid is greater? Refer to your chosen item by its label in the answer. A
(A: 0.41 mg, B: 0.19 mg)

====

assay.system: A1PI (Homo sapiens)
Construct: Human plasma is currently the only approved source of therapeutic AlPI
method.notes: A1PI binding on peptide-resin column, injection of 1 mg A1PI in equilibration buffer
study.conditions: Trp position mutations; 1 mg A1PI, 4° C.
Ends that are not written are not given here.
property.label: % of Total A1PI Eluted by Fraction (Based on Absorbance at 280 nm), Flowthrough (%)

// solved cases for % of Total A1PI Eluted by Fraction (Based on Absorbance at 280 nm), Flowthrough follow
INSERT INTO measurements (substance, value) VALUES
  ('V I N L V R: VIWLVR with Trp at position 3 replaced by Asn (VINLVR)', 0),
  ('V I S L V R: VIWLVR with Trp at position 3 replaced by Ser (VISLVR)', 0),
  ('V I L L V R: VIWLVR with Trp at position 3 replaced by Leu (VILLVR)', 0),
  ('VIYLVR: VIWLVR with Trp at position 3 replaced by Tyr', 0);

a. V I A L V R: VIWLVR with Trp at position 3 replaced by Ala (VIALVR)
b. VIWLVR
// compare measured % of Total A1PI Eluted by Fraction (Based on Absorbance at 280 nm), Flowthrough, left a , right b , return larger Your answer should be the label attached to the chosen record. b

====

assay.system: A1PI (Homo sapiens, UniProt P01009)
Construct: Human plasma is currently the only approved source of therapeutic AlPI
method.notes: A1PI binding on peptide-resin column, injection of 1 mg A1PI in equilibration buffer
study.conditions: VIFLVR point mutations; 1 mg A1PI, 4° C.
Ends that are not written are not given here.
property.label: % of Total A1PI Eluted by Fraction (Based on Absorbance at 280 nm), 2% Acetic Acid (%)

Worked examples follow.
INSERT INTO results (substance, value) VALUES
  ('Ac-V I F L V R: N-terminal acetylated sequence Ac-VIFLVR (listed under SEQ ID No:37) (not fully specified (C-terminus); printed as Ac-VIFLVR)', 22),
  ('H I F L V R: point mutation of VIFLVR, position 1 (HIFLVR)', 97),
  ('S I F L V R: point mutation of VIFLVR, position 1 (SIFLVR)', 93),
  ('V A F L V R: point mutation of VIFLVR, position 2 (VAFLVR)', 45),
  ('V R F L V R: point mutation of VIFLVR, position 2 (VRFLVR)', 61);

1. V I F A V R: point mutation of VIFLVR, position 4 (VIFAVR)
2. D I F L V R: point mutation of VIFLVR, position 1 (DIFLVR)
Between these two entries, 1 and 2 , state which has the higher % of Total A1PI Eluted by Fraction (Based on Absorbance at 280 nm), 2% Acetic Acid. Refer to your chosen item by its label in the answer. 1
(1: 54%, 2: 10%)

I. VIFLVR
II. V I F L Y R: point mutation of VIFLVR, position 5 (VIFLYR)
Lab note: check whether I or II shows the higher recorded % of Total A1PI Eluted by Fraction (Based on Absorbance at 280 nm), 2% Acetic Acid. Let me know the label of the one you choose. I
